The reported measurements were obtained from PubChem BioAssay (NCI).

system: UO-31 renal; test: NCI-60 one-dose screen, 48 h (100 = growth as untreated, 0 = no growth, -100 = all killed); details: 10 µM unless noted
About 83,000 compounds went through this panel and 20% of them were active in at least one assay; those are over-represented in the sample as a whole.
endpoint: growth (%)
Lab book: enter the figure in %, no units written.

C[C@H]1[C@H](C)CC[C@]2(C(=O)Nc3ccc4ncccc4c3)CC[C@]3(C)C(=CC[C@@H]4[C@@]5(C)CCCNC(C)(C)[C@@H]5CC[C@]43C)[C@H]12 -76.5

Inquiry: Look up and state reported growth for `Cc1cc(Cl)nc(N(CCNc2ccnc3cc(Cl)ccc23)Cc2ccccn2)n1`
Reply text: 43.2

Inquiry: Provide growth value for the following molecule: `Cc1ccc(NC(=O)Cc2ccc(/C=C/C(=O)c3ncc[nH]3)cc2)cc1`
Reply text: 39.5

Inquiry: Return growth for the following molecule: `CC[C@]12C=CCN3CC[C@@]4(c5cc(NC(=O)CCC(=O)O[C@H]6CC[C@H]7[C@@H]8CCC9=CC(=O)CC[C@@H]9[C@H]8CC[C@]67C)c(OC)cc5N(C)[C@H]4[C@@](O)(C(=O)OC)[C@@H]1OC(C)=O)[C@@H]32`
Reply text: 53.6

###

test system: OVCAR-3 ovarian; test: NCI-60 one-dose screen, 48 h; settings: 10 µM unless noted
About 83,000 compounds went through this panel and 20% of them were active in at least one assay; those are over-represented in the sample as a whole. Calls of active or inactive are those of the source. How the source made its calls: active means growth percent below 10; inactive means the rest.
# output must be one of 1 (yes) for active, 0 (no) for inactive

Worked cases, answers included:
compound	answer-label
O=C1Nc2cc(-c3ccc(NS(=O)(=O)c4ccccc4)cc3)ccc2/C1=C/c1ccc[nH]1	0 (no)
CC1(C)CC(O)CCCCCCOc2c(CN)cccc2NC(=O)c2nc(cnc2N)-c2ccc(cc2)S1(=O)=O (stereo not given)	1 (yes)
Cc1ccc(NS(=O)(=O)c2ccc(-c3cnc(C4CC4)o3)cc2)cc1C(F)(F)F	0 (no)
COc1cc2c(=O)n(CCN(C)C)c3c4cc5c(cc4ccc3c2cc1OC)OCO5	1 (yes)
C=C(C)[C@@H]1CC[C@]2(C(=O)N[C@H](CO)Cc3ccccc3)CC[C@]3(C)[C@H](CC[C@@H]4[C@@]5(C)CCCNC(C)(C)[C@@H]5CC[C@]43C)[C@@H]12	1 (yes)

Inquiry: Query: recorded result category for `Cc1cccc(-c2cn3ccnc3c(-c3ccc4ncn(Cc5ccccc5)c4c3)n2)c1` in this test
Reply text: 0 (no)

Inquiry: I'd appreciate the recorded outcome for `O=C(O)c1ccc2c(c1)C(=O)N(Cc1ccccc1)C2=O` from this test.
Reply text: 0 (no)

Inquiry: # fetch the recorded call for COc1cc2c(c(OC)c1OC)CCC(c1cccc(NC(=O)c3cccc(Br)c3)c1)O2 (stereo not given) here
Reply text: 0 (no)

Inquiry: For `NC(=NCCCOc1ccc(F)cc1)Nc1ccc(Cl)cc1` , which call appears in the assay record?
Reply text: 0 (no)

Inquiry: What outcome does the record of this test show for `COc1ccc(C/C(=C(\C)c2ccc(OCCN3CCCC3)cc2)c2ccc(OCCN3CCCC3)cc2)cc1` ?
Reply text: 0 (no)

###

The compounds listed here are annotated with their growth.
tested on: RPMI-8226 leukemia; test: NCI-60 one-dose screen, 48 h (100 = growth as untreated, 0 = no growth, -100 = all killed); details: 10 µM unless noted
This is part of a sample that, as a whole, favours compounds with a hit. Of some 83,000 tested, about 20% had one in any assay. The source made the active and inactive calls. The calls were made as follows: active = growth percent below 10; inactive = the rest.

compound	growth
COc1cccc(/C=N/NC(=O)c2cnn3c2NC(c2ccccc2)C3)c1Oc1ccccc1 (centres undefined)	100% (inactive)
CCOC(=O)/C(C#N)=C1/NNC(=Nc2cccnc2)S1	107% (inactive)
O=C(Nc1cccc(C(=O)N2CCc3ccc(Cl)cc32)c1)c1ccco1	34.6% (inactive)
C#CCNC(=O)c1cccc2c1cc(C)n2-c1nc2c(c(NCc3ccccc3)n1)CCCC2	0.445% (active)
CC(=O)N1c2ccccc2NC2=C(C(=O)NC2(C)C)C1c1ccco1 (centres undefined)	63.1% (inactive)
COc1cc2c(=O)n(CCCN(C)C)c3c4cc5c(cc4ccc3c2cc1OC)OCO5	6.97% (active)

Inquiry: Specify the recorded growth for CC(Sc1nc2sc3c(c2c(=O)n1-c1ccc(Cl)cc1)CCCC3)C(=O)Nc1nc(-c2ccc(Br)cc2)cs1 (centres undefined) , system: RPMI-8226 leukemia.
Reply text: 102% (inactive)

Inquiry: With RPMI-8226 leukemia as the test system, provide measured growth for this compound: `CCOC(=O)CCN(CC(C)C)C(=S)Nc1ccccc1`
Reply text: 115% (inactive)

Inquiry: For RPMI-8226 leukemia, give the measured growth of the entry `COc1cccc2c1c1nc3cc(C)c(C)cc3nc1n2CCN(C)C`
Reply text: -8.21% (active)

Inquiry: Report the value of growth obtained on RPMI-8226 leukemia for `O=C1Nc2cc(-c3ccc(NC(=O)C4CC4)cc3)ccc2/C1=C/c1ccc[nH]1` .
Reply text: 93.6% (inactive)

Inquiry: Give growth for `O=S(=O)(NCCNc1nccc(-c2c(-c3cccc(F)c3)nc3sccn23)n1)c1ccccc1` tested on RPMI-8226 leukemia.
Reply text: 43.5% (inactive)

Inquiry: Give reported growth for `CN1CCN(c2ccc(NC3=C(Cl)C(=O)c4ncccc4C3=O)cc2C(F)(F)F)CC1` (RPMI-8226 leukemia)
Reply text: -4.52% (active)

Inquiry: Give growth for this entry on RPMI-8226 leukemia: `CC1(C)CC[C@]23CC[C@]4(C)[C@H](CC[C@@H]5[C@@]6(C)CCCNC(C)(C)[C@@H]6CC[C@]54C)[C@H]2[C@H]1OC3`
Reply text: -29.7% (active)

###

tested on: A498 renal; assay: NCI-60 one-dose screen, 48 h; conditions: 10 µM unless noted
This is part of a sample that, as a whole, favours compounds with a hit. Of some 83,000 tested, about 20% had one in any assay. Active and inactive are the calls of the source. Rule for the calls: active = growth percent below 10; inactive = the rest.
Lab note: assign the record to one of t for active, f for inactive

COc1ccc(C(=O)c2nc3ccccc3n2CC(=O)c2ccc(F)cc2)cc1 f
COc1ccc2c(c1)oc1c(C)c3c(c(C)c12)C(=O)N(N)C3=O t
CSc1nc2sc3cccc(Cl)c3n2c(=N)c1C#N f

Inquiry: I would be grateful if you could indicate the recorded call for `CCOC(=O)c1cc(C#N)n2ccc3ccccc3c12` .
Reply text: f

Inquiry: Outcome? `O=C(/C(=C/c1ccc([N+](=O)[O-])cc1)SCc1ccc(F)cc1)c1ccc(F)cc1`
Reply text: f

Inquiry: Recorded call for `N#C/C(=C\c1ccccn1)c1nc2cc(Cl)ccc2s1` ?
Reply text: f

###

system: MALME-3M melanoma; experiment: NCI-60 one-dose screen, 48 h (100 = growth as untreated, 0 = no growth, -100 = all killed); conditions: 10 µM unless noted
About 83,000 compounds went through this panel and 20% of them were active in at least one assay; those are over-represented in the sample as a whole.
Below, each entry is listed with its recorded growth.
The figure you give is taken to be in %; do not add the unit.

Please review the following examples before continuing.
compound	experimental-value
Nc1c(S(=O)(=O)O)cc2c3c(cccc13)C(=O)OC2=O	112
O=S(=O)(NCCCNc1nccc(-c2c(-c3cccc(F)c3)nc3sccn23)n1)c1cccc(F)c1	63.2
C=C(C)[C@@H]1CC[C@]2(C(=O)N3CCN(C)CC3)CC[C@]3(C)[C@H](CC[C@@H]4[C@@]5(C)CC[C@H](OCCC#N)C(C)(C)[C@@H]5CC[C@]43C)[C@@H]12	118

Inquiry: Give me measured growth, please, for this compound: CN(C)c1ccc(C2C(C#N)=C(/N=C/c3ccccc3)Oc3c2ccc2ccccc32)cc1 (centres undefined)
Reply text: 77.8

Inquiry: Provide one value: measured growth of `O=C(CSc1nc2sc3c(c2c(=O)n1-c1ccc(Cl)cc1)CCCC3)Nc1nc(-c2cccc(Br)c2)cs1`
Reply text: 95.3

Inquiry: In one line, give reported growth of the entry `COc1cccc(C(=O)NNc2nc(Cl)nc(N3CCN(C(c4ccccc4)c4ccccc4)CC3)n2)c1` .
Reply text: 84.1

Inquiry: Please supply the value of reported growth for the item `CCNC(=O)Oc1ccc(/C(=C(\C)c2ccccc2)c2ccc(OCCCN(C)C)cc2)cc1`
Reply text: 40.9

Inquiry: Write down growth measured for item `COc1cc(CC(=O)n2ncc3ccc(N)cc32)cc(OC)c1OC`
Reply text: 85.7

Inquiry: Read off the recorded growth for `COc1cc(/C=C2\COc3ccc(-c4ccccc4)cc3C2=O)cc(OC)c1`
Reply text: 101

###

test system: EKVX NSCLC; assay: NCI-60 one-dose screen, 48 h (100 = growth as untreated, 0 = no growth, -100 = all killed); conditions: 10 µM unless noted
The panel holds about 83,000 compounds, 20% with a hit somewhere; the sample as a whole holds those more often.
Response key: 1.0 means growth >= 90%; 0.0 means growth < 90%.

Use the examples below as a reference point.
chemical-string	system-tested	answer-label
N#C/C(=C\c1ccc(C(F)(F)F)cc1)c1cc2ccccc2[nH]1	EKVX NSCLC	1.0
O=C1c2c(c3c4cccc(F)c4[nH]c3c3ccc4ccccc4c23)C(=O)N1O	EKVX NSCLC	0.0
COC(=O)/C=C1\S/C(=N\NC(=O)c2cc3ccc2/C=C\c2ccc(cc2)/C=C\3)N(c2ccccc2)C1=O	EKVX NSCLC	0.0
COc1ccc(C(=O)c2cc(C)c(OC)c(C)c2)c(OC)c1N(C(=O)CCl)C(=O)CCl	EKVX NSCLC	0.0
CCOc1cccc(-c2nc(N)nc(Nc3ccccc3SSc3ccccc3Nc3nc(N)nc(-c4cccc(OCC)c4)n3)n2)c1	EKVX NSCLC	0.0
O=S(=O)(NCCCNc1nccc(-c2c(-c3cccc(O)c3)nc3occn23)n1)c1ccc(Cl)cc1	EKVX NSCLC	1.0

Next up:
Inquiry: Reported growth at or above 90%? `CCCCCC(=O)Oc1ccc(/C(=C(\C)c2ccccc2)c2ccc(OCCN3CCCCC3)cc2)cc1`
Reply text: 1.0
